Tested on: Sam68 (KHDRBS1)
Test: compounds binding KHDRBS1 protein – biochemical, small-molecule microarray, 635 nm fluorescence, primary screen (AID 1125);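 further: score merges 667 nm channel intensity with signal to noise over triplicate slides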
Settings: higher = more signal
Reported composite z-score values for the following molecules.

Worked examples follow.
input: Give the measured composite z-score for COCCOC(=O)N1C(=O)[C@@]2(c3cc(C#Cc4ccc(OC)cc4)ccc31)[C@H](C(N)=O)[C@H]1C(=O)O[C@H](c3ccccc3)[C@H](c3ccccc3)N1[C@@H]2c1ccc(O)cc1
output: -0.986

input: Give the measured composite z-score for C=CC[C@]1(C(=O)NCCN2CCOCC2)N=C(c2ccc(OCCCO)cc2)O[C@H]1c1ccccc1N=[N+]=[N-]
output: 1.24

input: Give the measured composite z-score for CCCC[C@@H]1C[C@H]1[C@@H](NC(=O)c1ccccc1)c1ccccc1
output: 0.138

New cases:
input: Give the measured composite z-score for CCOC1=C2C(c3ccc(C)cc3)N(S(=O)(=O)c3ccc(C)cc3)CC2n2c(=O)n(-c3ccccc3)c(=O)n2C1 (stereo not given)
output: 1.35

input: Give the measured composite z-score for CC(=O)NCCCC[C@@H]1NC(=O)[C@@H]2C[C@H](C(=O)NCCCCCC[N+](C)(C)C)[C@H](c3cccc(OCCO)c3)N2C1=O
output: 1.22

input: Give the measured composite z-score for CN(C)CCCC[C@@H]1NC(=O)[C@@H]2C[C@H](C(=O)NCc3ccc(F)cc3)[C@H](c3cccc(OCCO)c3)N2C1=O
output: 1.05

input: Give the measured composite z-score for COC(=O)[C@@]1(Cc2ccc(F)cc2)[C@H]2c3cc(C(=O)N4CCCC4)n(Cc4ccc(Cl)c(C(F)(F)F)c4)c3C[C@H]2CN1C(=O)c1ccccc1
output: 1.33

input: Give the measured composite z-score for C/C=C/[C@H](CCn1cc([C@H](O)c2ccccc2)nn1)[Si](C)(C)c1ccc(OC)cc1
output: -0.971

input: Give the measured composite z-score for C=CC[C@]1(C(=O)O)N=C(c2ccc(OCCCO)cc2)O[C@H]1c1ccccc1CN=[N+]=[N-]
output: -0.103

input: Give the measured composite z-score for O=C1O[C@H](c2ccccc2)[C@H](c2ccccc2)N2[C@H]1[C@@H](C(=O)N1CCCCCCC1)[C@]1(C(=O)Nc3ccc(C#CC4=CCCCC4)cc31)[C@H]2c1ccc(O)cc1
output: 1.35

input: Give the measured composite z-score for C[C@H]1C2[C@H](Cc3ccccc3)NC(=O)[C@]23C(=O)N[C@H](Cc2ccccc2)C(=O)N[C@H](Cc2ccccc2)C(=O)NC/C=C/CCC/C=C/C3[C@@H]2O[C@]12C (stereo not given in full)
output: 0.179

input: Give the measured composite z-score for COc1ccc([Si](C)(C)[C@@H]2[C@@H](CCO)O[C@]3(C(=O)N(Cc4cccc(N5CCCCC5=O)c4)c4ccccc43)[C@H]2C)cc1
output: 1.29

input: Give the measured composite z-score for O=c1cccc(-c2cccc3ccccc23)o1
output: 0.11

input: Give the measured composite z-score for O=C1C2C=CC(C(O)c3ccc(Br)cc3)N(n3cnnc3)C2C(=O)N1Cc1ccccc1 (stereo not given)
output: 1.29

input: Give the measured composite z-score for CC(C)C(=C=CC[C@H](O)c1ccccc1OCCO)CCO
output: 0.829
